The measurements presented in this section are drawn from patent US20230049752A1.

List of FACS signal at 200 nM values.
Molecular target: human Claudin-6 (CLDN6) (human) (UniProt P56747)
Experiment: FACS, limiting dilution, UMUC4 cells

{"columns": ["binder", "FACS signal at 200 nM"],
 "data": [
  ["AB S9 (antibody, V domains shown) VH: QVQLVQSGAEVKKPGASVKMSCKASGYTFTTYTIHWVRQAPGQGLEWIGVINPSSGYTDYAQKFQGRVTLTADKSTSTVYMELSSLRSEDTAVYFCANGDYYVGYWGQGTLVTVSS VL: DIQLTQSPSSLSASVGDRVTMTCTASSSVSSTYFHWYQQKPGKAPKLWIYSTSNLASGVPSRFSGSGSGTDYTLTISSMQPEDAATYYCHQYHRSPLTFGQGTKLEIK", 35600],
  ["AB S6 (antibody, V domains shown) VH: EVQLLESGGGLVQPGGSMRLSCAASGFTFSNYWMNWVRQAPGKGLEWLAQIRLKSDNYVTHYADSVKGRFTISRDDSKRTVYLQMNSLRAEDTGTYYCNDGPPSGSWGQGTLLTVSS VL: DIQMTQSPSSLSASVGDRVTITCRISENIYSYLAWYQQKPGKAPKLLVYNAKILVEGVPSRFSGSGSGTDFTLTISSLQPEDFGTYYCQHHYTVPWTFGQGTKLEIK", 12500]
]}
